Molecular target: human TNFSF9 (R&D Systems; #2295-4L-025/CF) (human) (UniProt P41273)
Sequence (P41273 71-254 limits assumed): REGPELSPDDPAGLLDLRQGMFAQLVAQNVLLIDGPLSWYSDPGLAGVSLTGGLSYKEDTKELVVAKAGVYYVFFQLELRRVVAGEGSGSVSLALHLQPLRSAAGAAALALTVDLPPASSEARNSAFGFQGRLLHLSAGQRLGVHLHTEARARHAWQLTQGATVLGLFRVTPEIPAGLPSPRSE
Assay: MSD ELISA: TNFSF9 + 1 ug/mL antibody, binding to coated TNFRSF9
PARAMETER: % inhibition of ligand receptor interaction (%)
Reply with just the number (in %).

Task: Read the entry SC113.172 (antibody, V domains shown) VH: QGHLQQSGAELMKPGASVKISCKATGYTFSSYWIEWVKQRPGHGLEWIGEILPGSGSTHYNEKFKGKATFTADTSSNTAYMQLISLTSEDSAVYYCARRDAMDYWGQGTSVTVSS VL: DIVMTQSPSSLTVTPGEKVTMSCKSSQSLLTSGNQKNYLTWYQQQPGQPPKLLIYWASTRESGVPDRFTGSGSGTDFTLTISSVQAEDLAVYYCQNDYSYPYTFGGGTKLEIK and write its reported % inhibition of ligand receptor interaction.
Result: -3

Origin of values: patent US20190016812A1
